biological target: 5-hydroxytryptamine receptor 2B (Homo sapiens, UniProt P41595); type: functional, cell-based; note: assay procedure not described here
Sequence (P41595 whole entry): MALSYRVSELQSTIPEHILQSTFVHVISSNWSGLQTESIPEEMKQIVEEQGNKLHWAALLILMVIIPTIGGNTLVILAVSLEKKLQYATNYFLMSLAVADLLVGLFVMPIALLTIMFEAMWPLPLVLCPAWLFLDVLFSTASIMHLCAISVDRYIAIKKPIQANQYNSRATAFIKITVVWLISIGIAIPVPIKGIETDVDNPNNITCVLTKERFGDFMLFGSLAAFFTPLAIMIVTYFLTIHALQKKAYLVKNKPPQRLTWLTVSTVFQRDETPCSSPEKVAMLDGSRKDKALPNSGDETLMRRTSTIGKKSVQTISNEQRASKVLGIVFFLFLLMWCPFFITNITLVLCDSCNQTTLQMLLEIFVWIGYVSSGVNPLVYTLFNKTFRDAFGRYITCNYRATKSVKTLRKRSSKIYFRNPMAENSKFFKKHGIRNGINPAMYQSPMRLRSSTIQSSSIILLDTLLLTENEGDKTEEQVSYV
experimental endpoint: AC50

compound	val
COc1ccc(CC(C)(C)NC[C@H](O)c2cc(O)cc3c2OCC(=O)N3)cc1	> 30 µM
COC1=C(OC)C(=O)C(C/C=C(\C)CC/C=C(\C)CC/C=C(\C)CC/C=C(\C)CC/C=C(\C)CC/C=C(\C)CC/C=C(\C)CC/C=C(\C)CC/C=C(\C)CCC=C(C)C)=C(C)C1=O	> 30 µM
NS(=O)(=O)Cc1noc2ccccc12 [ZONISAMIDE]	> 10 µM
CC[C@@H]1C(=O)OC[C@@H]1Cc1cncn1C	> 10 µM

We next turn to a different compound, shown below.
Task: Provide measured AC50 value, entry: NCC[C@H](O)C(=O)N[C@@H]1C[C@H](N)[C@@H](O[C@H]2O[C@H](CN)[C@@H](O)[C@H](O)[C@H]2O)[C@H](O)[C@H]1O[C@H]1O[C@H](CO)[C@@H](O)[C@H](N)[C@H]1O
Output: > 10 µM

====

Lab note: AC50 readings collected with D(1A) dopamine receptor (Homo sapiens) for the following compounds.
Sequence (P21728 whole entry): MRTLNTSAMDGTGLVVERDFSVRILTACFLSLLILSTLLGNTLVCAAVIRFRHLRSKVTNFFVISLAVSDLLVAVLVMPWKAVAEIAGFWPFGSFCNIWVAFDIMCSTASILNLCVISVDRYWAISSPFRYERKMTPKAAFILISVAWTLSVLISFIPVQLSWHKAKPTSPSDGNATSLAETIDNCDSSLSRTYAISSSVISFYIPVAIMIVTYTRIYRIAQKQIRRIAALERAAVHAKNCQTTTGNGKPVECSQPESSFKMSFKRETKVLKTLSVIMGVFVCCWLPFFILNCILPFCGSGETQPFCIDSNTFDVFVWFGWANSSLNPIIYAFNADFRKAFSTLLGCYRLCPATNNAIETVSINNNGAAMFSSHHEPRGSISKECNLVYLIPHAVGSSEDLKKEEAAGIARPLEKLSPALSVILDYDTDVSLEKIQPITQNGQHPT

Reference set (4 entries):
compound	target entity	AC50
O=C(OCC(O)CO)c1ccccc1Nc1ccnc2cc(Cl)ccc12 (stereo not drawn) [GLAFENINE]	D(1A) dopamine receptor (Homo sapiens)	> 30 µM
CN(C)CCN1C(=O)c2ccccc2N(C)c2ccccc21 [DIBENZEPIN]	D(1A) dopamine receptor (Homo sapiens)	14.3 µM
CC(C)(C)C(=O)C(Oc1ccc(Cl)cc1)n1ccnc1 (stereo not drawn) [CLIMBAZOLE]	D(1A) dopamine receptor (Homo sapiens)	> 30 µM
C=CCN1C[C@H](C(=O)N(CCCN(C)C)C(=O)NCC)C[C@@H]2c3cccc4[nH]cc(c34)C[C@H]21 [CABERGOLINE]	D(1A) dopamine receptor (Homo sapiens)	0.648 µM

Task: Provide measured AC50 value, entry: CC(C)(C)C(=O)OCOC(=O)[C@@H]1N2C(=O)[C@@H](NC(=O)[C@H](N)c3ccccc3)[C@H]2SC1(C)C [PIVAMPICILLIN]
Output: > 30 µM

Task: Provide measured AC50 value, entry: Cc1cc(NS(=O)(=O)c2ccc(N)cc2)nc(C)n1 [SULFISOMIDINE]
Output: > 30 µM

Task: Provide measured AC50 value, entry: CN1CCN(C2=Nc3ccccc3Sc3ccc(Cl)cc32)CC1 [CLOTHIAPINE]
Output: 0.0061 µM

Task: Provide measured AC50 value, entry: CCN(CC)CCc1nc(-c2ccccc2)no1 [OXOLAMINE]
Output: > 30 µM

====

target: UniProtKB P30542
Sequence (P30542 whole entry): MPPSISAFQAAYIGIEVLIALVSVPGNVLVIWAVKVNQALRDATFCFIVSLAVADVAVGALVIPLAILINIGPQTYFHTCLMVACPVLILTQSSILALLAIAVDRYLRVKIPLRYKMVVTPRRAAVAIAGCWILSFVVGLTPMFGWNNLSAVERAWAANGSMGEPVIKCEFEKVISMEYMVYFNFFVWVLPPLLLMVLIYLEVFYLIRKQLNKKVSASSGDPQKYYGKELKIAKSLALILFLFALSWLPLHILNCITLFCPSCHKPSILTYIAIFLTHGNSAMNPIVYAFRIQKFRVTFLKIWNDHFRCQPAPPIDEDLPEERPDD
experimental endpoint: AC50

Reference set (5 entries):
In [3]: df
Out[3]:
                                   compound     target_entity  experimental_endpoint      val
0  COc1cc2c(N)nc(N3CCN(C(=O)OCC(C)(C)O)CC3)nc2c(OC)c1OC  UniProtKB P30542                   AC50  > 30 µM
1  C[C@H]1COc2c(C3(N)CC3)c(F)cc3c(=O)c(C(=O)O)cn1c23  UniProtKB P30542                   AC50  > 10 µM
2  Nc1nc(NC2CC2)c2ncn([C@H]3C=C[C@@H](CO)C3)c2n1  UniProtKB P30542                   AC50  > 30 µM
3  CC(C[N+](C)(C)C)OC(N)=O (stereo unspecified)  UniProtKB P30542                   AC50  > 10 µM
4  Cc1nc([N+](=O)[O-])cn1-c1ccc([N+](=O)[O-])cc1  UniProtKB P30542                   AC50  > 30 µM

Task: Provide measured AC50 value, entry: CCN1CCN(C(=O)N[C@@H](C(=O)N[C@@H]2C(=O)N3C(C(=O)O)=C(CSc4nnnn4C)CS[C@H]23)c2ccc(O)cc2)C(=O)C1=O
Output: > 30 µM

Task: Provide measured AC50 value, entry: O=C1C(O)=C([C@H]2CC[C@H](c3ccc(Cl)cc3)CC2)C(=O)c2ccccc21
Output: > 30 µM

Task: Provide measured AC50 value, entry: CC(=O)O[C@H]1CC[C@@]2(C)C(=CC[C@@H]3[C@@H]2CC[C@]2(C)C(c4cccnc4)=CC[C@@H]32)C1 [ABIRATERONE ACETATE]
Output: > 30 µM

Task: Provide measured AC50 value, entry: O=C(O)[C@H](CC(=O)N1C[C@H]2CCCC[C@H]2C1)Cc1ccccc1 [MITIGLINIDE]
Output: > 10 µM

Task: Provide measured AC50 value, entry: CCOc1ccccc1OCC1CNCCO1 (stereo unspecified)
Output: > 30 µM

====

Lab note: AC50 readings collected with Sodium-dependent serotonin transporter (Homo sapiens, UniProt P31645) for the following compounds.
Sequence (P31645 whole entry): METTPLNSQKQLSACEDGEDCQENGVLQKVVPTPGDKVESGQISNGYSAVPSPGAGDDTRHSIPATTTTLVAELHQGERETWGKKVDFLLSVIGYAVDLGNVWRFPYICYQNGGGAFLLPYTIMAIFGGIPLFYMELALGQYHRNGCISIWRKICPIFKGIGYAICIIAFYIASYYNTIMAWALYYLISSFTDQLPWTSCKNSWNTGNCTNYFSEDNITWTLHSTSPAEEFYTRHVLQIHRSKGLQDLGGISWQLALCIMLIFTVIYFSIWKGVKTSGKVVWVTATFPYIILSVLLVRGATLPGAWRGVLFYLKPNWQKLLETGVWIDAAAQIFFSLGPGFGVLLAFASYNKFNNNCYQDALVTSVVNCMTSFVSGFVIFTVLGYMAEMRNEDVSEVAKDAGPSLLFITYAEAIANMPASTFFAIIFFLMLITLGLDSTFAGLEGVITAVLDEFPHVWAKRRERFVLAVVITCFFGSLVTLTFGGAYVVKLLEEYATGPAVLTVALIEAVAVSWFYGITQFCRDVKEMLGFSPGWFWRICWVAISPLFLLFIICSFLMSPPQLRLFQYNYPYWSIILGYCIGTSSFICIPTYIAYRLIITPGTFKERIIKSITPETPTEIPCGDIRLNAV

compound	AC50
Cc1ccccc1OCC(O)CO (configuration not stated)	> 30 µM
CC(CNC(=O)c1ccccc1)C(=O)OCC(=O)[C@@]12OC(C)(C)O[C@@H]1C[C@H]1[C@@H]3CCC4=CC(=O)C=C[C@]4(C)[C@@]3(F)[C@@H](O)C[C@@]12C (some centres not stated) [TRIAMCINOLONE BENETONIDE]	> 30 µM
CC[N+]1(C)[C@@H]2CC(OC(=O)[C@H](CO)c3ccccc3)C[C@H]1[C@@H]1O[C@@H]12 (some centres not stated)	> 30 µM
CC(C)(C)CC(C)(C)c1ccc(O)c(Cc2ccc(Cl)cc2Cl)c1	5.43 µM
CCCCCNC(=N)N/N=C/c1c[nH]c2ccc(OC)cc12	2.57 µM

Task: For Sodium-dependent serotonin transporter (Homo sapiens, UniProt P31645), give the measured AC50 of the entry N[C@@H](C(=O)N[C@@H]1C(=O)N2C(C(=O)O)=C(Cl)CC[C@H]12)c1ccccc1 [LORACARBEF ANHYDROUS]
Output: > 30 µM

Task: For Sodium-dependent serotonin transporter (Homo sapiens, UniProt P31645), give the measured AC50 of the entry CCCCOC(=O)C(=O)[C@H]1[C@H](C)C[C@H]2[C@@H]3C[C@H](F)C4=CC(=O)C=C[C@]4(C)[C@H]3[C@@H](O)C[C@@]21C
Output: > 30 µM

Task: For Sodium-dependent serotonin transporter (Homo sapiens, UniProt P31645), give the measured AC50 of the entry CCOC(=O)/C=C1\SC(N2CCCCC2)C(=O)N1C (configuration not stated)
Output: > 30 µM

Task: For Sodium-dependent serotonin transporter (Homo sapiens, UniProt P31645), give the measured AC50 of the entry OC(c1ccccc1)(c1ccccc1)C12CC[N+](CCOCc3ccccc3)(CC1)CC2
Output: 0.302 µM

Task: For Sodium-dependent serotonin transporter (Homo sapiens, UniProt P31645), give the measured AC50 of the entry COc1ccc(C(=O)Nc2ccccc2CCC2CCCCN2C)cc1 (configuration not stated) [ENCAINIDE]
Output: > 30 µM

Task: For Sodium-dependent serotonin transporter (Homo sapiens, UniProt P31645), give the measured AC50 of the entry CC(=O)c1ccc2c(c1)N(CCCN(C)C)c1ccccc1S2
Output: 0.145 µM

Task: For Sodium-dependent serotonin transporter (Homo sapiens, UniProt P31645), give the measured AC50 of the entry CCC(CC)(CC(=O)Nc1cccc(/C=C/c2nc(C3CCC3)cs2)c1)C(=O)O
Output: > 30 µM

Task: For Sodium-dependent serotonin transporter (Homo sapiens, UniProt P31645), give the measured AC50 of the entry CC(C)(C)C(=O)OCOC(=O)[C@@H]1N2C(=O)[C@@H](NC(=O)[C@H](N)c3ccccc3)[C@H]2SC1(C)C
Output: > 30 µM

Task: For Sodium-dependent serotonin transporter (Homo sapiens, UniProt P31645), give the measured AC50 of the entry CC[C@@H](C(N)=O)N1CCCC1=O
Output: > 30 µM

====

target: Muscarinic acetylcholine receptor M1 (Homo sapiens); type: functional; note: assay procedure not described here
Sequence (P11229 whole entry): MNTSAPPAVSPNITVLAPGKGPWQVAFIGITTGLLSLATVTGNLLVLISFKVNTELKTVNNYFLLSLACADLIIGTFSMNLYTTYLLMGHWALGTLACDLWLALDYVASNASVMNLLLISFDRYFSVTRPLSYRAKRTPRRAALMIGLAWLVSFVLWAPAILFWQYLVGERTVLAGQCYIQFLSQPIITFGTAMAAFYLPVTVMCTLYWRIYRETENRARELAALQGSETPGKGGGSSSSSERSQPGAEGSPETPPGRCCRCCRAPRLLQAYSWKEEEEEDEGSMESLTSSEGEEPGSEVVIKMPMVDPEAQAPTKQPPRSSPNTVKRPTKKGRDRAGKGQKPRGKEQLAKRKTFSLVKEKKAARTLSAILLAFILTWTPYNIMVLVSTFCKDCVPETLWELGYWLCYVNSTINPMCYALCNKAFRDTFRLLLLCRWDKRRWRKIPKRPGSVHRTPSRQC
experimental endpoint: AC50

Reference set (4 entries):
In [3]: df
Out[3]:
                                   compound       val
0  COc1ccccc1OCCNCC(O)c1ccc(C)c(S(N)(=O)=O)c1 (stereo not given)   > 30 µM
1                       O=C(O)CCCCCCCC(=O)O   > 10 µM
2  O=C(O[C@H]1C[C@H]2CC[C@@H](C1)[N+]21CCCC1)C(O)(c1ccccc1)c1ccccc1  0.028 µM
3  CCC1(CC)C(=O)NCC(C)C1=O (stereo not given)   > 30 µM

We next turn to a different compound, shown below.
Task: Provide measured AC50 value, entry: COc1ccc2c3c1O[C@H]1[C@@H](O)CC[C@H]4[C@@H](C2)N(C)CC[C@@]341 [DIHYDROCODEINE]
Output: > 30 µM
